meta.source: the RNAGym collection of RNA variant scans (doi:10.7554/elife.80360)

B1: Twister Ribozyme (parent)
chain: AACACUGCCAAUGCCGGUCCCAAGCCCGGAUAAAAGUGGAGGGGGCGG

Variants of: B1
assay_remarks: self-cleavage, relative activity (ratio to wild type); higher = more cleavage; co-transcriptional
experimental_endpoint: self-cleavage
Please reply with the value in numeric form only.

-- ask Value lookup for self-cleavage; key = C3U G36U
-- reply 0.064

-- ask For the variant G24A A32U , what self-cleavage is on record?
-- reply 0.0696

-- ask Which self-cleavage reading was recorded for the variant C26G G42C ?
-- reply 0.139

-- ask Would you mind telling me what self-cleavage value was observed for G28A A35C ?
-- reply 0.793

-- ask Fill blank: measured self-cleavage of the variant C27A G47U is ____.
-- reply 0.186

-- ask Which measured self-cleavage value corresponds to G7A G41C ?
-- reply 0.143

-- ask So what does the record say about self-cleavage for C9A C26A ?
-- reply 0.11

-- ask Name the recorded self-cleavage for A2G G16C .
-- reply 0.119

-- ask Fill in: self-cleavage of A10C A32C is ___
-- reply 0.821

-- ask # self-cleavage lookup, item C14U C26G
-- reply 0.235

-- ask Quick one: self-cleavage for A4G C19A ?
-- reply 0.0929

-- ask Which value of self-cleavage has been reported for A10G U12G in the records?
-- reply 1.07

-- ask Fill in the blank: the reported self-cleavage of A2G G24A is ____.
-- reply 0.082

-- ask So what's the measured self-cleavage for this one? C15U A35C
-- reply 0.863

-- ask self-cleavage for A22C G45C ?
-- reply 0.491

-- ask Endpoint output: self-cleavage of G41A G45C . Value?
-- reply 0.151

-- ask Requested read-out: self-cleavage. Entry: U31A A35U
-- reply 1.09

-- ask Look up self-cleavage: C8G A23C
-- reply 0.0689

-- ask What measured self-cleavage goes with C3U G38C ?
-- reply 0.288

-- ask For the variant shown here, C5A A22U , give the reported self-cleavage.
-- reply 0.249

-- ask Entry G13C G41A has what self-cleavage?
-- reply 0.0914

-- ask Entry U12G A32U has what self-cleavage?
-- reply 0.958

-- ask Tell me the measured self-cleavage of A4U , please.
-- reply 0.136

-- ask Tell me the measured self-cleavage of U18A C19A , please.
-- reply 0.0671

-- ask What self-cleavage value was documented for this variant, G28A A35U ?
-- reply 0.847

-- ask Requested field: self-cleavage. Item: C3U A34C
-- reply 0.155

-- ask Please give the measured self-cleavage for this variant: C19U G38A
-- reply 0.855

-- ask Requested field: self-cleavage. Item: U12G C46U
-- reply 0.866

-- ask Any idea what self-cleavage was measured for C14U G45C ?
-- reply 0.713

-- ask self-cleavage lookup needed for A2G C14A , thanks.
-- reply 0.291

-- ask I have this variant here, U6A G16U , and I need its recorded self-cleavage.
-- reply 0.43

-- ask Give its self-cleavage value. Item: C9G A34C
-- reply 0.134

-- ask If you can, please state the reported self-cleavage value of G16U A34C .
-- reply 0.111

-- ask Need self-cleavage, item A23G G29C
-- reply 0.1

-- ask Any idea what its self-cleavage is? The variant is C20G A30C
-- reply 0.0614

-- ask Give the measured self-cleavage of U18A C20A .
-- reply 0.0667

-- ask Suppose we examine the variant G16C G48U ; what self-cleavage value has been reported?
-- reply 0.414

-- ask // self-cleavage lookup, key: C9U G36C
-- reply 0.12

-- ask Tell me the measured self-cleavage of A4U C14G , please.
-- reply 0.0594

-- ask Reported self-cleavage, variant U37A G41A : ____
-- reply 0.16

-- ask What value of self-cleavage has been reported for the following variant? G29U A40U
-- reply 0.145

-- ask Item G16C G29C has what recorded self-cleavage?
-- reply 0.117

-- ask Field request: self-cleavage | item: A1C G16U
-- reply 0.189

-- ask Return reported self-cleavage; argument: U12C A40C
-- reply 0.177

-- ask Which self-cleavage is reported for this variant? A22U G38A
-- reply 0.843

-- ask Look up self-cleavage: G39U G41A
-- reply 0.0926
